# system-name: mfPRLR.mmh (monomeric macaca fascicularis PRLR)
# Sequence (as listed by the source): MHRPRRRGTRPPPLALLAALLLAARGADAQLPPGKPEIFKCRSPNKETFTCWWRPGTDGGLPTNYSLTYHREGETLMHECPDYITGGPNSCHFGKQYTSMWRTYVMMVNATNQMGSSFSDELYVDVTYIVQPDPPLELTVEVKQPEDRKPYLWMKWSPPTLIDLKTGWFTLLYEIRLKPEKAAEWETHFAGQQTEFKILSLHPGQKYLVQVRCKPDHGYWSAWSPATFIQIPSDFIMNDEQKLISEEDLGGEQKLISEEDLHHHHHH
# protocol-details: Surface plasmon resonance (Biacore T200), mAb-capture format
# Format: binding
# protocol-conditions: 37° C., antibody-capture format, analyte mfPRLR.mmh
Reported Kd values for the following molecules.
Express your answer in nM, writing the number without its unit.

Below, 3 molecules whose answers are already recorded.
molecule	Kd (nM)
H1H6804P: anti-PRLR antibody, human IgG1 Fc; HCVR/LCVR SEQ ID NOs 242/250 (antibody, V domains shown, human IgG1 Fc) VH: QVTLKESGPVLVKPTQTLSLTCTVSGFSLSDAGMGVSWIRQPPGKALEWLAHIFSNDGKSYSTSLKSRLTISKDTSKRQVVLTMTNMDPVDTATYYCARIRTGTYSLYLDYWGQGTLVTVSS VL: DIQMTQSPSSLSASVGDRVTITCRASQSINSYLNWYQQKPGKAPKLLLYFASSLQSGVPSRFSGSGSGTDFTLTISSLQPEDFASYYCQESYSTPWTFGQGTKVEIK	9.35
H1H6800P: anti-PRLR antibody, human IgG1 Fc; HCVR/LCVR SEQ ID NOs 194/202 (antibody, V domains shown, human IgG1 Fc) VH: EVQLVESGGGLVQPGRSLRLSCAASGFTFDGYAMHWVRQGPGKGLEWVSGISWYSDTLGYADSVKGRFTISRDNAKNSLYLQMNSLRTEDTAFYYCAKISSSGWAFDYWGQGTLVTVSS VL: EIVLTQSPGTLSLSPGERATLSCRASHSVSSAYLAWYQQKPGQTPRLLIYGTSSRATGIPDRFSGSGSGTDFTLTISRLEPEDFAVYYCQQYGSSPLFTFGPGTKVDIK	2.48
H1H6790P: anti-PRLR antibody, human IgG1 Fc; HCVR/LCVR SEQ ID NOs 114/122 (antibody, V domains shown, human IgG1 Fc) VH: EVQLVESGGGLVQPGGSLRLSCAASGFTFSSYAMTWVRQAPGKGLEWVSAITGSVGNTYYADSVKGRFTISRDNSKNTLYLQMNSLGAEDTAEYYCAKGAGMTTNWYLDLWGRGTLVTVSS VL: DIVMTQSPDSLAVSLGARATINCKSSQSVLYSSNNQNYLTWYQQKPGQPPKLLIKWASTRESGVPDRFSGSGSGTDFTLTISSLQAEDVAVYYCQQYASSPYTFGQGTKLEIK	5.22

*Q* Could you tell me which Kd is on file for H1H6803P: anti-PRLR antibody, human IgG1 Fc; HCVR/LCVR SEQ ID NOs 226/234 (antibody, V domains shown, human IgG1 Fc) VH: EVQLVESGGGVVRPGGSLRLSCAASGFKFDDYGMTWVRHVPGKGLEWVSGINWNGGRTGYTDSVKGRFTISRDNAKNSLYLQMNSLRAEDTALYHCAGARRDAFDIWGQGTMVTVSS VL: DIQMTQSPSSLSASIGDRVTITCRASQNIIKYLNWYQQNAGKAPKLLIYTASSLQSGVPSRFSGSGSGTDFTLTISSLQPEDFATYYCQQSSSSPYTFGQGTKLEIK ?
*A* 7.28

*Q* Could you tell me which Kd is on file for H1H6801P: anti-PRLR antibody, human IgG1 Fc; HCVR/LCVR SEQ ID NOs 210/218 (antibody, V domains shown, human IgG1 Fc) VH: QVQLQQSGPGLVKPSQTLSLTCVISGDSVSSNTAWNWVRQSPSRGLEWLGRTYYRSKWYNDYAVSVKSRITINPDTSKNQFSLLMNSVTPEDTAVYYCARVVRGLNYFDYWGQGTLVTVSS VL: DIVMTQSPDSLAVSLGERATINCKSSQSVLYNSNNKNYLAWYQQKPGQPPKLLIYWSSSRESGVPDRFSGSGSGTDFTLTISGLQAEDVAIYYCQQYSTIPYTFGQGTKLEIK ?
*A* 10.8
